These entries and their values trace back to PubChem BioAssay (NCI).

Reported TGI values for the following compounds.
System: SW-620 colon
Test: NCI tumour cell line growth inhibition, 48 h

Compound	TGI
N#CCCSC1SC(=C2SC3=C(SCCS3)S2)SC1SCCC#N (stereo not drawn)	> 100 µM
Nc1ccc(C(=O)NN2C(=O)C(Cl)C2c2cc(Br)ccc2O)cc1 (stereo not drawn)	> 100 µM
O=C(Cn1cc(F)c(=O)[nH]c1=O)C12CC3CC(CC(C3)C1)C2	> 100 µM

* * *

Tested on: SNB-19 CNS
Test: NCI tumour cell line growth inhibition, 48 h

Molecule	GI50
COc1ccc(C/C(C)=C(\c2ccc(OCCN3CCOCC3)cc2)c2ccc(OC(=O)Cc3ccccc3)cc2)cc1	1.3 µM
CN(c1ccc(NC(=O)Nc2ccc(OC(F)(F)F)cc2)cc1)c1ccnc(Nc2cccc(S(N)(=O)=O)c2)n1	5.49 µM
N#Cc1c(N)nc(N2CCOCC2)c(C#N)c1-c1ccc(Cl)cc1	28.1 µM
Cc1nc2cnc3cc(F)c(-c4ccc(Oc5ncccn5)cc4Cl)cc3c2n1[C@H]1CCN(C(=O)CO)C[C@@H]1F	4.89 µM
CCCCCCC#Cc1ccccc1C#CCO	16.3 µM
CN(C)c1ccc(-c2cc(-c3ccc(Nc4nc(Nc5ccccc5)nc(Nc5ccc(Cl)cc5)n4)cc3)nc(N)n2)cc1	13.5 µM

* * *

Reported TGI values for the following molecules.
Test system: SN12C renal
Assay: NCI tumour cell line growth inhibition, 48 h

Molecule	TGI
c1cc(CSP234N5CCN2CCN3CCN4CC5)ccc1CSP123N4CCN1CCN2CCN3CC4	> 100 µM
c1ccc(-c2cs[s+]c2)cc1	> 100 µM
CCN1CCN(CC(=O)Nc2nc3ccc(NCc4ccc(Cl)cc4)cc3s2)CC1	11.9 µM
N=C(N)C(N=Nc1ccccc1)C(N)=O (stereo unspecified)	> 100 µM
COc1ccc(C2C3CCc4ccccc4C3=NN2S(=O)(=O)c2ccc(Cl)cc2)cc1 (stereo unspecified)	> 100 µM
O=c1c2cc(Br)ccc2nc(-c2ccccc2Cl)n1NCC1(O)OCC(O)C(O)C1O (stereo unspecified)	> 100 µM
c1cc(CCN2CCCCC2)ccn1	> 100 µM
O=c1c2c(c1=O)C1(SCCCS1)c1cc(Cl)ccc1O2	> 100 µM
Cc1nc2sc(C(=O)Nc3cccc4ccccc34)c(N)c2cc1C(=O)/C=C/c1ccccc1	1.88 µM
CC(=O)Nc1ccc(/C=N\N2C(=O)c3ccccc3C2=O)cc1	> 100 µM
O=Cc1cn(Cc2cccc(Cl)c2)c2ccccc12	23.5 µM
CCn1c2ccccc2c2ccc3c(c21)C(=O)c1ccccc1C3=O	> 100 µM
O=c1c(Sc2c(O)c3ccccc3c3ccccc3c2=O)c(O)c2ccccc2c2ccccc12	> 100 µM
O=c1[nH]c(=O)n(COCCO)c2ccc(Br)cc12	> 100 µM
CCCCCCCCCCCCCCCCCCNc1ccn(C2OC(CO)C(O)C2O)c(=O)n1 (stereo unspecified)	> 100 µM
Cc1ccc(/C=C2/SC(Nc3nc(-c4nc(NC5=NC(=O)/C(=C\c6ccc(C)cc6)S5)sc4C)c(C)s3)=NC2=O)cc1	18.3 µM

* * *

Reported TGI values for the following compounds.
Test system: HCT-116 colon
Assay: NCI tumour cell line growth inhibition, 48 h

Compound	TGI
COc1ccc(C2C(=O)C(Cl)N2Nc2nc(C)cc(=O)[nH]2)cc1OC (stereo not drawn)	> 100 µM
Cc1ccc(S(=O)(=O)NNC(=O)c2sc(-c3nc(C)c(C(=O)NNS(=O)(=O)c4ccc(C)cc4)s3)nc2C)cc1	> 100 µM
COc1ccc2oc(=O)cc(C)c2c1	> 100 µM

* * *

Test system: HOP-92 NSCLC
Assay: NCI tumour cell line growth inhibition, 48 h

Compound	TGI
COc1ccc(C2C3CCc4ccccc4C3=NN2S(=O)(=O)c2ccc(Cl)cc2)cc1 (stereo unspecified)	> 100 µM
[C-]#[O+].[C-]#[O+].[C-]#[O+].[C-]#[O+].[Ir].[Ir].[O-]c1ccc2ccccc2c1C=Nc1ccc(N=Cc2c([O-])ccc3ccccc23)cc1	> 100 µM
Cc1ccc(/C=C2/SC(Nc3nc(-c4nc(NC5=NC(=O)/C(=C\c6ccc(C)cc6)S5)sc4C)c(C)s3)=NC2=O)cc1	> 47.8 µM
N#C/C(=C1\NN=C(N)C(c2ccc(Cl)cc2)=C1O)c1ccc(Cl)cc1	> 100 µM
N#Cc1cccc(C(=O)Nc2cccc(NC(=O)c3cccc(C#N)c3)c2)c1	> 100 µM
CC(=O)O[C@@H]1[C@H]2[C@@H](OC(=O)c3ccccc3)[C@@H](C)C[C@]2(O)[C@H](OC(C)=O)[C@@]2(C)[C@@H]3CC(C)(C)C(=O)[C@]3(OC(C)=O)C[C@@]12C	> 25 µM
CN=CN(C)c1c2ccccc2nc2ccccc12	> 100 µM
C=CN1C(=O)OC[C@@H]1c1ccccc1	> 100 µM
CS(=O)(=O)c1ccc(-c2cnc(N)c(C(=O)Nc3ccccc3)n2)cc1	> 100 µM
C=CCOc1ccc(/C(N=Nc2ccccc2)=N/NC(=O)c2ccccc2)cc1OC	> 100 µM
COc1cc(Cl)cc(N(O)C(C)=O)c1OCc1ccccc1	> 100 µM
N=C(N)C(N=Nc1ccccc1)C(N)=O (stereo unspecified)	> 100 µM
O=C(CCCCCCSc1nc(-c2ccccc2)cc(-c2ccccc2)n1)NO	4.95 µM
CN(C)CCCNc1ncnc2nc[nH]c12	> 100 µM
COc1ccc(C(=O)COc2cccc(/C=C3\CSc4ccccc4C3=O)c2)cc1	9.08 µM
COc1ccc(C(=O)/C=C/c2c(C(F)(F)F)nc3sccn23)cc1OC	59.6 µM
c1ccc(C(c2ccccc2)[P+](c2ccccc2)(c2ccccc2)c2ccccc2)cc1	2.79 µM
NC1CC(N)c2c(Br)sc(Br)c21 (stereo unspecified)	> 100 µM
Cc1nc(-n2[nH]c(C)c(CCO)c2=O)[nH]c(=O)c1CCO	> 100 µM
CCCCCCC#Cc1ccccc1C#CCO	26.7 µM
COc1ccc(C/C(C)=C(\c2ccc(OCCN3CCOCC3)cc2)c2ccc(OC(=O)Cc3ccccc3)cc2)cc1	0.901 µM

* * *

System: UACC-257 melanoma
Assay: NCI tumour cell line growth inhibition, 48 h
Where a SMILES comes first, the peptide text is derived from it. The star is where a group is joined. Cbz = O=C(OCc1ccccc1)*; Boc = CC(C)(C)OC(=O)*; Bn = c1ccc(C*)cc1
Reported TGI values for the following molecules.
Quantity Name: TGI

Molecule	System Name	Result Value
COC(=O)C1=C(C(=O)OC)C2C(C)=CC(C)=CN2C(C#N)=C(SC)S1 (centres undefined)	UACC-257 melanoma	64.3 µM
COc1cc2nc(-c3cccs3)nc(N3C(c4ccc(O)cc4)=NNC(=O)c4ccccc43)c2cc1OC	UACC-257 melanoma	84.9 µM
O=c1[nH]nc2ccccc2c1Cl	UACC-257 melanoma	29.7 µM
O=C1OC(CC(=O)c2ccc(Cl)cc2Cl)C(Cl)=C1Cl (centres undefined)	UACC-257 melanoma	> 100 µM
FC(F)(F)C(C1=NC(C(F)(F)F)(C(F)(F)F)N=C(N2CCOCC2)O1)C(F)(F)F	UACC-257 melanoma	75.3 µM
CC(O)(/C=C/c1ccccc1)P(=O)(O)c1ccccc1 (centres undefined)	UACC-257 melanoma	> 100 µM
CCOC(=O)c1sc2nc(SC)nc3c2c1NCN3c1ccc2c(c1)OCCCO2	UACC-257 melanoma	> 100 µM
NC(=O)c1oc([N+](=O)[O-])c(-c2ccccc2)c1-c1ccccc1	UACC-257 melanoma	34.7 µM
O=c1[nH]c(=O)n(COCCO)c2ccc(Br)cc12	UACC-257 melanoma	> 100 µM
COc1cc(-c2c(C#N)c(N)c(C#N)c3c2COc2ccccc2-3)cc(OC)c1OC	UACC-257 melanoma	> 100 µM
O=c1c2cc(Br)ccc2nc(-c2ccccc2Cl)n1NCC1(O)OCC(O)C(O)C1O (centres undefined)	UACC-257 melanoma	> 100 µM
CCCCCCCCCCCCCCCCCCNc1ccn(C2OC(CO)C(O)C2O)c(=O)n1 (centres undefined)	UACC-257 melanoma	> 100 µM
CN1CCN(c2cc3c(cc2F)c(=O)c(C(=O)O)cn3C2CC2)CC1CC#N (centres undefined)	UACC-257 melanoma	> 100 µM
C/C(=C\c1ccn(-c2ccc(N)c(F)c2)n1)[C@@H]1C[C@@H]2O[C@]2(C)CCC[C@H](C)[C@H](O)[C@@H](C)C(=O)C(C)(C)[C@@H](O)CC(=O)O1	UACC-257 melanoma	> 50 µM
CC(C)[C@@]12C[C@@H](OC(=O)COC(=O)/C=C/c3ccccc3)[C@@](C)(O1)[C@@H]1CC[C@@H](C)[C@H]1[C@@H]2OC(=O)/C=C/c1ccccc1	UACC-257 melanoma	> 100 µM
Cc1cccc(NC(=O)c2cc3cc(N=Nc4ccccc4Cl)ccc3oc2=O)c1	UACC-257 melanoma	> 100 µM
CN1CCN(c2nc(NCCCCNc3ccnc4cc(Cl)ccc34)c3ccccc3n2)CC1	UACC-257 melanoma	3.9 µM
Cc1nc(Nc2ccc(F)cc2)c2sc(=S)n(-c3ccc(F)cc3)c2n1	UACC-257 melanoma	26.2 µM
O=c1c2cccc3cccc(c4oc5c6cccc7cccc(c(=O)c5c14)c76)c32	UACC-257 melanoma	30 µM
C=CCOC1OC(CS(=O)(=O)O)C(O)C(O)C1O (centres undefined)	UACC-257 melanoma	> 100 µM
Cn1ccnc1C(=O)/C=C/c1ccc(CC(=O)Nc2ccc(S(F)(F)(F)(F)F)cc2)cc1	UACC-257 melanoma	10.5 µM
N#Cc1c(N)nc(N2CCOCC2)c(C#N)c1-c1ccc(Cl)cc1	UACC-257 melanoma	> 100 µM
CCCCNc1c(CN)cnc2cc(Cl)ccc12	UACC-257 melanoma	26.5 µM
COc1cc(C[C@H]2C(=O)OC[C@@H]2Cc2ccc(OC)c(OC)c2)cc(OC)c1	UACC-257 melanoma	> 100 µM
Cc1nc2sc(C(=O)Nc3cccc4ccccc34)c(N)c2cc1C(=O)/C=C/c1ccccc1	UACC-257 melanoma	> 30.3 µM
CC(C)(C)OC(=O)NC(Cc1ccc(OCc2ccccc2)cc1)C(=O)NC(CCCCNC(=O)OCc1ccccc1)C(=O)O (centres undefined) (Boc-Tyr(Bn)-Lys(Cbz)-OH; configuration not given here)	UACC-257 melanoma	> 100 µM
N#Cc1c(-c2ccc(Cl)cc2)c(C#N)c(=O)n(NS(=O)(=O)c2ccccc2)c1S	UACC-257 melanoma	> 100 µM
CS(=O)(=O)c1ccc(-c2cnc(N)c(C(=O)Nc3ccccc3)n2)cc1	UACC-257 melanoma	> 100 µM
C=CN1C(=O)OC[C@@H]1c1ccccc1	UACC-257 melanoma	> 100 µM
CCN1CCN(CC(=O)Nc2nc3ccc(NCc4ccc(Cl)cc4)cc3s2)CC1	UACC-257 melanoma	6.86 µM
CSc1nc(-c2ccc(C)cc2)c(C#N)c(=O)[nH]1	UACC-257 melanoma	> 100 µM
O=C(CCCCCCSc1nc(-c2ccccc2)cc(-c2ccccc2)n1)NO	UACC-257 melanoma	11.1 µM
COc1cc2c(cc1OC)CC(=O)c1cc(OC)c(OC)cc1/C=C\2	UACC-257 melanoma	> 12.5 µM
COc1ccc(C(=O)c2sc(Nc3ccccc3)nc2N)cc1	UACC-257 melanoma	> 100 µM
